// provenance: patent US11433139B2

System: feline 15H05 mutant IL-31
Test: Biacore binding, single test concentration of antibody, feline 15H05 mutant IL-31 surface
measured-parameter: binding to feline 15H05 mutant IL-31 (Biacore)

molecule	recorded-measurement
11E12: mouse-derived anti IL-31 antibody previously described in U.S. Pat. No. 8,790,651; for comparison (antibody, V domains shown) VH: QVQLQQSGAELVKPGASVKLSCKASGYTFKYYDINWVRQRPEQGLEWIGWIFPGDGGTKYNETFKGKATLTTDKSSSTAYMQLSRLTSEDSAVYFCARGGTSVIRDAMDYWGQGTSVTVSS VL: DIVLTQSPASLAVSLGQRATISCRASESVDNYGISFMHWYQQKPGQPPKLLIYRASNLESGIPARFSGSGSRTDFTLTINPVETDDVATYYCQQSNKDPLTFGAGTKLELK	bound
